Reported pIC50 values are given for each entry in this list.
Target: FAAH (Homo sapiens)
Sequence (O00519 1-579): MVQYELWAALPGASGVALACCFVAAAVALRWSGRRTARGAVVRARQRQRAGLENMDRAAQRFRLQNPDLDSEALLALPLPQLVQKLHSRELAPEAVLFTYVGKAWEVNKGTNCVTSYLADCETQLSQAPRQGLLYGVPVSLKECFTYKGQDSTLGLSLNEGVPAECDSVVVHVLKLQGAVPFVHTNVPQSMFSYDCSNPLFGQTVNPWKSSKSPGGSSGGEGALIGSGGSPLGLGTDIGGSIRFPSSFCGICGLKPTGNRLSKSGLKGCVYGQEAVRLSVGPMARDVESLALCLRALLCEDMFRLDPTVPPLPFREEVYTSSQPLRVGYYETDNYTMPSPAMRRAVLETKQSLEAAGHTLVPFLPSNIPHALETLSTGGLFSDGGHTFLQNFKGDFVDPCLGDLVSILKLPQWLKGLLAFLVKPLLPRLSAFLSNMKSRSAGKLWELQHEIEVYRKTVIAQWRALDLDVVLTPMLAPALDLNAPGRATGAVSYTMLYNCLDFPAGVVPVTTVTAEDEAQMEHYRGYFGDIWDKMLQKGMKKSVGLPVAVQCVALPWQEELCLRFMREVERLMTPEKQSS
Assay: Assay Method 1: FAAH assay, 3H-anandamide hydrolysis in homogenate of cells transfected with human FAAH
Conditions: cell homogenate, 3H-AEA 80 nM, 1 h at rt, average of results
pIC50: −log10 of the molar value.
quantityName: pIC50

>>> value("O=C(Nc1cccnc1)N1CC(COc2ccc(OCc3ccccc3)cc2)C1")
"< 5.00"
>>> value("O=C(Nc1cccnc1)N1CCC(CCOc2ccccc2)C1 (stereo not drawn)")
"< 5.00"
>>> value("O=C(Nc1cccnc1)N1CCC(CCOc2cccc(OC(F)(F)F)c2)C1 (stereo not drawn)")
"< 5.00"
